So I've got a bunch of sequences here, and I need their PBM E-score values.
ASSAY TARGET: Msn1 (UniProt P22148)
Sequence: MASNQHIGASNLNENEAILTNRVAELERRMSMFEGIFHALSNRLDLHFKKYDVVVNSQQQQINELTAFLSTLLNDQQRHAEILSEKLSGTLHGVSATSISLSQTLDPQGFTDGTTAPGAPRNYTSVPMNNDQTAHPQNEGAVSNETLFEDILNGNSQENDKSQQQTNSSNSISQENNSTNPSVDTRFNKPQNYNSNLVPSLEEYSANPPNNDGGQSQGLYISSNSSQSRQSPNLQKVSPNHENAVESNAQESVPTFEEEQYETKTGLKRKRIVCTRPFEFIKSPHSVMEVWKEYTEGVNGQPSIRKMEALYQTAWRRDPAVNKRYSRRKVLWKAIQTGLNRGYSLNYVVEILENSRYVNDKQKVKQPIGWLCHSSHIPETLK
PROTOCOL DETAILS: PBM E-score (8-mer binding enrichment) (E-score (-0.5 to 0.5)); higher = stronger / more preferred TF binding
SETUP CONDITIONS: protein concentration: 200 nM; construct: GST-full length
The full ranking holds about 33,000 sequences; the median of “E-score (-0.5 to 0.5)” is about -0.013, and the highest 2% start at about 0.3. Only a selection was taken, and the highest values are over-represented in it overall.
Answer using only a numeral; do not append any unit.

Recorded PBM E-score for TGGTCTAA , please?
-0.0904

If you can, please state the reported PBM E-score value of CATAAAGC .
-0.057

What value of PBM E-score has been recorded for this entry: CACAAATC
0.0687

I would be grateful if you could share the reported PBM E-score for ATGGAAAT .
0.0754

Which PBM E-score value is on record for CACACTAC ?
-0.188

Quick check: PBM E-score of ACCGTCGT ?
0.142

Find the recorded PBM E-score belonging to CGTCGCAA and report it.
0.0166

I am curious: what PBM E-score value has been reported for TGTCGCAA ?
0.324

Report PBM E-score for TTAGAAAA please.
0.109

Endpoint output: PBM E-score of GTAGACAC . Value?
0.0944

Can you share its PBM E-score? I mean this sequence: CTAGACAC
0.0417

Would you kindly share the measured PBM E-score for AGCCTGTG ?
-0.221

Which PBM E-score reading was recorded for the sequence AGCGAAAG ?
0.00846

Tell me the measured PBM E-score of TGCTGACA , please.
0.125

Look up PBM E-score for this sequence: TAGTTTGA
0.113

Field request: PBM E-score | item: ATGGACGC
0.122

// returns reported PBM E-score for input AGTCTGAA
0.029

Would you kindly share the measured PBM E-score for CGATGACA ?
0.314

Looking for the measured PBM E-score of TGTCTAAA , can you help?
0.38

Reported PBM E-score, sequence AACAAGTC : ____
0.103

Can you look up the measured PBM E-score of AACAAGTA for me?
-0.0396

I would be grateful if you could share the reported PBM E-score for AACAAATA .
0.211

# input sequence: CTATGAGA ; wanted: its PBM E-score
-0.0425

Return reported PBM E-score; argument: GACAAGTA
0.369

Entry under review: CCGACTGC . Reported PBM E-score?
-0.00611
